# tested.target: PTGER2 (EP2) (Homo sapiens, UniProt P43116)
# Sequence (P43116 whole entry): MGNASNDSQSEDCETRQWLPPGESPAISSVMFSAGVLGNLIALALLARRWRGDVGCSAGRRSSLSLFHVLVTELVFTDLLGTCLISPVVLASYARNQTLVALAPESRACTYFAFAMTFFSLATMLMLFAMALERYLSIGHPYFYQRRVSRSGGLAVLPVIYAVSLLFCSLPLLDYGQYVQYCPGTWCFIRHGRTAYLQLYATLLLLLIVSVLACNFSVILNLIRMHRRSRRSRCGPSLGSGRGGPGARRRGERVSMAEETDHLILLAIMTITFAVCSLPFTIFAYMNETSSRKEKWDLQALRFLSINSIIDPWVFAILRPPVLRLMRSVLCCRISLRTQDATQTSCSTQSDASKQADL
# protocol: hEP2 b-arrestin assay (PathHunter HEK 293 PTGER2 b-arrestin cells)
# measurement.conditions: antagonistic activity, beta-arrestin assay; read-out: hEP2 b-arr IC50
pIC50: −log10 of the molar value.
value.type: pIC50

Study these solved cases before continuing.
{"compound": "CCCn1cc(-c2cc(NCCc3c(C)sc4c(C)cc(F)cc34)ncn2)cc1C(=O)O", "pIC50": 7.47}
{"compound": "Cc1sc2c(Cl)ccc(Cl)c2c1CCNc1cc(-c2ccc(C(=O)O)c(O)c2)ncn1", "pIC50": 7.00}
{"compound": "CCOc1cc(-c2cc(NCCc3c(C)sc4c(OC)ccc(F)c34)ncn2)ccc1C(=O)O", "pIC50": 7.82}
{"compound": "CCCSc1cc(-c2cc(NCCc3c(C)sc4c(C)cccc34)ncn2)ccc1C(=O)O", "pIC50": 8.30}

I = CCOc1cc(-c2cc(NCCc3c(C)sc4c(C)cc(F)cc34)ncn2)ccc1C(=O)NCCO
II = CCOc1cc(-c2cc(NCCc3c(C)sc4c(C)cccc34)ncn2)ccc1C(C)C(=O)O (racemic)
III = Cc1sc2c(C)cc(F)cc2c1CCNc1cc(-c2ccc(C(=O)O)c(O)c2)ncn1
[in] Order each entry by recorded pIC50, climbing from the minimum. The reply should contain the labels ordered as requested.
[out] II, III, I
(II: 6.98, III: 7.24, I: 7.52)
